Assayed System: human full-length MKNK1 (Homo sapiens, UniProt Q9BUB5, T385D)
Construct: GST (N); purchased Carna Biosciences 02-145; host or cells: insect cells (baculovirus expression system)
Sequence (Q9BUB5 1-424 isoform Q9BUB5-2 T344D): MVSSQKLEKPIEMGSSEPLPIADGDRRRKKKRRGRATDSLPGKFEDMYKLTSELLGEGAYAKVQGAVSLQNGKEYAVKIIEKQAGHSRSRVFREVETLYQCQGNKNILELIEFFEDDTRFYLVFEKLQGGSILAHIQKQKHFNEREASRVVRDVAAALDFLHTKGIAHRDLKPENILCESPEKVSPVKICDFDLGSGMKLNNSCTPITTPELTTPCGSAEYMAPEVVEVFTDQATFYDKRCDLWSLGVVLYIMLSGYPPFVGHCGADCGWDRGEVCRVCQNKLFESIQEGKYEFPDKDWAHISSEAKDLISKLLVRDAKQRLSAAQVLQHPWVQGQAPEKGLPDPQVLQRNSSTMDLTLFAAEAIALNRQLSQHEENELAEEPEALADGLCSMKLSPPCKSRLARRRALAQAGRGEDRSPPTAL
Assay Method Text: MKNK1 kinase high ATP assay (TR-FRET)
Format: biochemical
Test Readout: IC50 (nM)
Numbers only, in nM.

Give the measured IC50 of "Cc1cc(Nc2ncnc3sc4c(c23)CC[C@H](C(=O)N2CCC(=O)CC2)C4)c(=O)n2c1C(=O)NC21CCCCC1" .
0.3

----------
Give measured pIC50 for each item. Keep answers brief.
Assayed System: human full-length MKNK1 (Homo sapiens, UniProt Q9BUB5, T385D)
Construct: GST (N); purchased Carna Biosciences 02-145; host or cells: insect cells (baculovirus expression system)
Assay Method Text: MKNK1 kinase high ATP assay (TR-FRET)
Format: biochemical
Recorded Conditions: TR-FRET, 2 mM ATP (high ATP), 15 min preincubation with enzyme, 30 min reaction at 22° C.; read-out: MKNK1 IC50
Answers are plain numbers, as −log10 of the molar value.

Below, each entry is followed by its recorded pIC50 result.
Compound | Assayed System | Endpoint Result
CC1(C)NC(=O)c2c(Cl)cc(Nc3ncnc4sc5c(c34)CC[C@H](C(N)=O)C5)c(=O)n21 [Example 110] | human full-length MKNK1 (Homo sapiens, UniProt Q9BUB5, T385D) | 8.92
O=C1NC2(CCCCC2)n2c1c(Cl)cc(Nc1ncnc3sc4c(c13)CC[C@H](C(=O)O)C4)c2=O [Example 73] | human full-length MKNK1 (Homo sapiens, UniProt Q9BUB5, T385D) | 8.80
CN(C)C(=O)[C@H]1CCc2c(sc3ncnc(Nc4cc(Cl)c5n(c4=O)C4(CCC4)NC5=O)c23)C1 [Example 95] | human full-length MKNK1 (Homo sapiens, UniProt Q9BUB5, T385D) | 8.72

// for each compound below, give its pIC50
1. Cc1cc(Nc2ncnc3sc4c(c23)CC[C@H](C(=O)N2CCN(C)[C@H](C)C2)C4)c(=O)n2c1C(=O)NC2(C)C [Example 32]
2. NC(=O)[C@H]1CCc2c(sc3ncnc(Nc4cc(Cl)c5n(c4=O)C4(CCC4)NC5=O)c23)C1 [Example 94]
3. Cc1cc(Nc2ncnc3sc4c(c23)CC[C@H](C(=O)N2CCN(C)[C@H](C)C2)C4)c(=O)n2c1C(=O)N[C@]21CC[C@@](O)(C(F)(F)F)CC1 [Example 83]
4. N#CC1CN(C(=O)[C@H]2CCc3c(sc4ncnc(Nc5cc(Cl)c6n(c5=O)C5(CCCCC5)NC6=O)c34)C2)C1 [Example 77]

9.30
9.70
8.82
9.10
